- Assay Details: qHTS of pediatric cancer cell lines to identify multiple opportunities for drug repurposing: Primary screen for A673 cells (AID 1347092); further: nearly all actives have a fitted effect of over 45% in size
- Protocol Conditions: A673 Ewing sarcoma viability, CellTiter-Glo ATP luminescence, 48 h; series mostly up to 46 µM
Records with an inconclusive call do not appear. Activity calls are given as the source filed them. The call rests on the fitted dose curve; in most records, active means well fitted cell-killing curve with a large enough effect; inconclusive means small, poorly fitted or top-dose-only effect; inactive means no such curve, though single readings can be large or run the other way.
Labels: Yes for active, No for inactive

> print(dat)
                                   compound  qualitative.label
1  CCC(C(=O)O)c1ccc(N2Cc3ccccc3C2=O)cc1 (centres undefined)                 No
2                             Cc1ccc(N)cc1O                Yes
3                 O=C(O)c1ccccc1NCCc1ccccc1                 No
4                                Nc1ccccc1N                Yes

---

- Test system: PA-1
- Assay Details: Primary qHTS to identify gynecologic anti-cancer compounds using libraries of approved drugs and bioactive compounds (AID 1345084); further: nearly all actives have a fitted effect of over 55% in size
- Protocol Conditions: Gynecologic cancer cell panel viability, ATPlite luminescence, 48 h; series mostly up to 57.5 µM
Inconclusive results are not listed. Active and inactive are the calls of the source. Calls follow the shape of the dose curve; as a rule, active = well fitted cell-killing curve with a large enough effect; inconclusive = small, poorly fitted or top-dose-only effect, or effect the other way; inactive = flat fitted curve, though single readings scatter.
Possible outcomes: active, inactive

Compound	Tgt	Qualitative Label
CC1CCCCN1S(=O)(=O)c1ccc(N2CCCC2=O)cc1 (centres undefined)	PA-1	inactive
Nc1nccn2c(C3CCC(C(=O)O)CC3)nc(-c3cc4cccc(Cl)c4[nH]3)c12 (centres undefined)	PA-1	active
CC(=O)O[C@H]1C[C@@](O)(C(C)C)C2[C@@H](OC(=O)c3ccc(O)cc3)C[C@@]3(C)O[C@H]3C[C@]21C (some centres undefined)	PA-1	inactive
CC1=C2C[C@H]3O[C@@]3(C)CCC3O[C@@]3(C)C[C@@]2(O)OC1=O (some centres undefined)	PA-1	inactive
CC1CC[C@]2(C(=O)O)CC[C@]3(C(=O)O)C(=CCC4[C@@]5(C)CC[C@H](OC6OC(C)C(O)C(OC7OC(CO)C(O)C(O)C7O)C6O)C(C)(C)C5CC[C@]43C)C2C1C (some centres undefined)	PA-1	inactive
COc1c/c(=C2\C=c3ccccc3=N2)[nH]/c1=C\c1[nH]c(C)cc1C	PA-1	active
CC12CCC(C(OC3OC(COC4OCC(O)(CO)C4O)C(O)C(O)C3O)C1)C(C)(C)O2 (centres undefined)	PA-1	inactive
Cc1nc(C)c(-c2ccc(C3CCC(CC(=O)O)CC3)cc2)nc1C(N)=O (centres undefined)	PA-1	inactive
C=C1C(=O)OC2CC(C)=C(C(C)CCCO)C(O)C12 (centres undefined)	PA-1	inactive

---

- Tested on: CRL-7250
- Assay Details: Cytotoxic Profiling of Annotated Libraries Using Quantitative High-Throughput Screening (AID 1296008); further: on the % scale 0 is the no-effect control and ±100 the full control effect; nearly all actives have a fitted effect of over 60% in size
- Protocol Conditions: Five cell lines viability, CellTiter-Glo ATP luminescence, 48-72 h; active compounds read low
Results filed as inconclusive are left out.
Recorded Endpoint: max response (%)

> print(dat)
                                   molecule  recorded.endpoint  data.value
1  C=C1CC[C@@H]2[C@](C)(CO[C@@H]3O[C@H](CO)[C@@H](O)[C@H](O)[C@H]3O)[C@H](O)CC[C@@]2(C)[C@@H]1C/C=C1/C(=O)OC[C@H]1O       max response        4.42
2  CN(CCc1ccc(Nc2ncc(-c3cccnc3)s2)cc1)Cc1ccccc1       max response       -10.2
3  NC(=O)Nc1cc(-c2cccc(F)c2)sc1C(=O)NC1CCCNC1 (centres undefined)       max response        -112
4  CC(=O)O[C@@H]1c2c3c(cc(O)c2C(=O)O[C@@H]1C)O[C@@]1(C)[C@@H](O)C[C@H]2C(C)(C)C(=O)C=C[C@]2(C)[C@@H]1C3       max response       -27.6

---

- Test system: NIH3T3
- Assay Details: qHTS assay to identify novel small-molecules to repurpose for Merkel cell carcinoma treatment (AID 1296009); further: nearly all actives have a fitted effect of over 60% in size
- Protocol Conditions: MCC and control cell lines, CellTiter-Glo viability, 72 h; at 44.8 µM (top of the series) unless noted
Records with an inconclusive call do not appear. Active and inactive are the calls of the source. Calls come from the whole dose curve; as a rule, active = well fitted inhibition curve with a large enough effect; inconclusive = small, poorly fitted or top-dose-only effect; inactive = flat fitted curve, though single readings scatter. Where a SMILES comes first, the peptide text is derived from it. Bridges are numbered along the chain shown (N, C = ends). [ ]: non-standard residue; d: D form. NMeY = CN[CH](Cc1ccc(O)cc1)C(=O)O
Recorded Endpoint: outcome

Compound	Tgt	Recorded Endpoint	Data Value
COc1ccc(C2(O)c3ccccc3NC(=O)C2O)cc1 (stereo not drawn)	NIH3T3	outcome	inactive
COC1=CC(=O)CC(C)C12Oc1cc(OC)cc(O)c1C2=O (stereo not drawn)	NIH3T3	outcome	inactive
C=C1CCC2C(C)(COC(C)=O)CCCC2(C)C1CCC(C)CC(=O)O (stereo not drawn)	NIH3T3	outcome	inactive
CCC(C)C1NC(=O)C2CCCN2C(=O)C(NC(C)=O)C(C)OC(=O)C(Cc2ccc(OC)cc2)N(C)C(=O)C2CCCN2C(=O)C(C(C)C)NC1=O (stereo not drawn) (Ac-TPIVP[NMeY](Me); ester 1-C; configuration not given here)	NIH3T3	outcome	inactive [at 17.4 µM]
O=C(/C=C/c1ccccc1)OC[C@]12O[C@H]1[C@@H](O)[C@@H]1C=CO[C@@H](O[C@@H]3O[C@H](CO)[C@@H](O)[C@H](O)[C@H]3O)[C@@H]12	NIH3T3	outcome	inactive [at 17.4 µM]
CC(C)/C=C1\NC(=O)C(C(C)C)n2c1nc1c(c2=O)C=CC=CO1 (stereo not drawn)	NIH3T3	outcome	inactive
CNC(C)C(=O)NC(C(=O)N1CCCC1c1nc(C(=O)c2ccc(F)cc2)cs1)C1CCCCC1 (stereo not drawn)	NIH3T3	outcome	inactive

---

- Tested on: Tov-21-G
- Assay Details: Primary qHTS to identify gynecologic anti-cancer compounds using libraries of approved drugs and bioactive compounds (AID 1345084); further: nearly all actives have a fitted effect of over 55% in size; on activity change, negative = cytotoxicity: on the % scale 0 is the no-effect control and ±100 the full control effect
- Protocol Conditions: Gynecologic cancer cell panel viability, ATPlite luminescence, 48 h; series mostly up to 57.5 µM
Records with an inconclusive call do not appear. Active and inactive are the calls of the source. The call rests on the fitted dose curve; in most records, active means well fitted cell-killing curve with a large enough effect; inconclusive means small, poorly fitted or top-dose-only effect, or effect the other way; inactive means flat fitted curve, though single readings scatter.
As shown below, each of these compounds has a reported activity change, negative = cytotoxicity value.
Recorded Endpoint: activity change, negative = cytotoxicity

Compound	Tgt	Data Value
C[C@@H]1O[C@@H](O[C@H]2[C@H](O[C@H]3[C@H](O[C@H]4CC[C@@]5(C)C(CC[C@]6(C)C5CC=C5[C@@H]7CC(C)(C)C[C@@H](O)[C@]7(C)CC[C@]56C)[C@@]4(C)CO)O[C@H](C(=O)O)[C@@H](O)[C@@H]3O)OC[C@H](O)[C@@H]2O)[C@H](O)[C@H](O)[C@H]1O (stereo partly drawn)	Tov-21-G	-1.97% [at 11.6 µM] (inactive)
C[C@@H]1O[C@@H](O[C@H]2[C@H](O[C@H]3[C@H](O)[C@@H](C(=O)O)O[C@@H](O[C@H]4CC[C@@]5(C)C(CC[C@]6(C)C5CC[C@]57OC[C@@]8(CCC(C)(C)CC85)[C@H](O)C[C@]76C)C4(C)C)[C@@H]3O[C@@H]3O[C@H](CO)[C@@H](O[C@@H]4OC[C@@H](O)[C@H](O)[C@H]4O)[C@H](O)[C@H]3O)O[C@H](CO)[C@H](O)[C@@H]2O)[C@H](O)[C@H](O)[C@H]1O (stereo partly drawn)	Tov-21-G	-4.6% [at 6.55 µM] (inactive)
CC1OC(OC2C(C)OC(OC3C(O)C(CO)OC(O[C@H]4CC[C@@]5(C)C(CC[C@]6(C)C5CC=C5C7[C@@H](C)[C@H](C)CC[C@]7(C(=O)O)CC[C@]56C(=O)O)C4(C)C)C3O)C(O)C2O)C(O)C(O)C1O (stereo partly drawn)	Tov-21-G	-0.483% [at 11.6 µM] (inactive)

---

- System: Tov112D
- Assay Details: Primary qHTS to identify gynecologic anti-cancer compounds using libraries of approved drugs and bioactive compounds (AID 1345084); further: nearly all actives have a fitted effect of over 55% in size; on activity change, negative = cytotoxicity: on the % scale 0 is the no-effect control and ±100 the full control effect
- Protocol Conditions: Gynecologic cancer cell panel viability, ATPlite luminescence, 48 h; series mostly up to 57.5 µM
Results filed as inconclusive are left out. Activity calls are given as the source filed them. The call rests on the fitted dose curve; in most records, active means well fitted cell-killing curve with a large enough effect; inconclusive means small, poorly fitted or top-dose-only effect, or effect the other way; inactive means flat fitted curve, though single readings scatter.
Recorded Endpoint: activity change, negative = cytotoxicity

Molecule	Tgt	Data Value
C[C@@H]1O[C@@H](O[C@@H]2CO[C@@H](O[C@H]3CC[C@@]4(C)C(CC[C@]5(C)C4CC=C4[C@@H]6CC(C)(C)CC[C@]6(C(=O)O[C@@H]6O[C@H](CO)[C@@H](O)[C@H](O)[C@H]6O)CC[C@]45C)[C@]3(C)CO)[C@H](O)[C@H]2O[C@@H]2O[C@H](CO)[C@@H](O)[C@H](O)[C@H]2O)[C@H](O)[C@H](O)[C@H]1O (stereo not given in full)	Tov112D	0.619% [at 11.6 µM] (inactive)
CC(=O)C1=C(C)N(c2cccc(C(F)(F)F)c2)C(=O)N[C@H]1c1ccc(C#N)nc1	Tov112D	-8.52% [at 11.6 µM] (inactive)
CC12CCC(=O)C=C1C(O)CC1C2C(O)CC2(C)C1CC[C@]2(O)C(=O)CO (stereo not given in full)	Tov112D	12.3% [at 11.6 µM] (inactive)
COC1CC(O[C@H]2CC[C@@]3(C)C(CCC4C3[C@H](OC(C)=O)[C@@H](OC(=O)/C=C/c3ccccc3)[C@]3(C)C(C(C)=O)CC[C@]43O)C2)OC(C)C1OC1CC(OC)C(OC2CC(OC)C(OC3OC(C)C(OC4OC(CO)C(O)C(O)C4O)C(OC)C3O)C(C)O2)C(C)O1 (stereo not given in full)	Tov112D	-0.487% [at 6.55 µM] (inactive)
O=C(O)C1CN(Cc2ccc(-c3nc4cc(Cc5ccccc5F)ccc4s3)c(F)c2)C1	Tov112D	10.6% [at 11.6 µM] (inactive)
